assayed_system: Endothelial lipase (EL) (Homo sapiens (Human), UniProt Q9Y5X9)
Sequence (Q9Y5X9 21-500): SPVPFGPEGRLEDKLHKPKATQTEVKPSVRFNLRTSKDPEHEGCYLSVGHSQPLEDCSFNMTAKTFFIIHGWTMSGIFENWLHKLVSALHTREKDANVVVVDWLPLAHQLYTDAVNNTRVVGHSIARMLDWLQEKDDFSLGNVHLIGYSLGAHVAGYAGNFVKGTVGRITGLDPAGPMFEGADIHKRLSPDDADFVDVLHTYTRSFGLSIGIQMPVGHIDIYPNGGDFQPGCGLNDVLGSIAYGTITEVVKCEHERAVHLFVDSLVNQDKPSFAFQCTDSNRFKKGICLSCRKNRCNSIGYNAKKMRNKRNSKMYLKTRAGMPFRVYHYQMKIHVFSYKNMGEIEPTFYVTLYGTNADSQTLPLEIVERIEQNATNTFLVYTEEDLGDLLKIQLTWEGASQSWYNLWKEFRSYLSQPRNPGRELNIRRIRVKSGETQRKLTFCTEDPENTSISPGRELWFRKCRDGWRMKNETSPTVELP
test_name: EL assay: endothelial lipase activity with fluorescent substrate A10070 in DMPG vesicles
Assay type: biochemical
Rule: IC50 below 5 nM gives TRUE, anything at or above gives FALSE.

Known results for molecules:
molecule: C[C@H]1CN(C(=O)c2ccc(-c3ccc4nc(C(C(=O)NCCS(N)(=O)=O)S(=O)(=O)CC5CC5)sc4c3)cc2)CCO1 (some centres unmarked) [Example B251]
category_label: TRUE

molecule: CN(C)C(=O)c1ccc(-c2ccc3nc(C(C(=O)NCCS(N)(=O)=O)S(=O)(=O)CCC(F)(F)F)sc3c2)cc1F (centres unmarked) [Example B230]
category_label: TRUE

molecule: Cc1cc(-c2ccc3nc(C(C(=O)NCCS(N)(=O)=O)S(C)(=O)=O)sc3c2)cnc1F (centres unmarked) [Example B33]
category_label: FALSE

molecule: CS(=O)(=O)C(C(=O)NCc1ccccc1S(N)(=O)=O)c1nc2ccc(-c3ccc(N4CCCCC4)cc3)cc2s1 (centres unmarked) [Example B275]
category_label: FALSE

Now consider the entry below.
Would you kindly verify if IC50 of COCc1ccc(-c2ccc3nc(C(C(=O)NCCS(N)(=O)=O)S(=O)(=O)Cc4ccc(OC(F)(F)F)cc4)sc3c2)cc1 (centres unmarked) [Example B285] is strictly less than 5 nM? FALSE
